- assay comment: recombinant barcode read abundance after kanamycin selection (control-corrected) (log10(CPM+1)); higher = more efficient recombination; sequences stand for … in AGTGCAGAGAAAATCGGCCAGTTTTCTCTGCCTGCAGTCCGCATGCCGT…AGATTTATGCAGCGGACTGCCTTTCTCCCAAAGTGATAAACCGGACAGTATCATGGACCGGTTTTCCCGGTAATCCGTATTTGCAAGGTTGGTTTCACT; site = the 11-nt target;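 note: IS621 recombinase and bridge RNA in Escherichia coli cells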
measured parameter: recombinant barcode read abundance (log10)
Lab note: write the figure by itself, no unit.

Input: // lookup recombinant barcode read abundance (log10) for ACATAGTCTTGGGTTCTAACCTGTTGCTG (site ACATAGTCTCA)
Output: 0.71

Input: Thanks! And CTAAGGGCTTGGGTTCTAACCTGTTGCGG (site CTAAGGGCTCC) ?
Output: 1.94

Input: # repeat for ACTATAACTTGGGTTCTAACCTGTTGCTT (site ACTCTAACTAA)
Output: 0.535

Input: Okay, and TGTTAGCCTTGGGTTCTAACCTGTTGCCT (site GGCTAGCCTAG) ?
Output: 0.0606

Input: Moving on to TGACGTTCTTGGGTTCTAACCTGTTGCCT (site TGACGTTCTAG)
Output: 0.313

Input: Also need AATGCTCCTTGGGTTCTAACCTGTTGCCT (site AATGCTCCTAG) , thanks.
Output: 0.561

Input: Item: CCGGTAACTTGGGTTCTAACCTGTTGCCT (site CCTGTAGCTAG)
Output: 0.142

Input: Next sequence up: GTAACCTCTTGGGTTCTAACCTGTTGCCG (site GTAACCTCTTG)
Output: 0.0357

Input: How about TGCTGTACTTGGGTTCTAACCTGTTGCCT (site TGCTGTGCTAG) ?
Output: 0.0772

Input: Then TCCCGTACTTGGGTTCTAACCTGTTGCAT (site TCCAGTACTAT) ?
Output: 0.382
